Item-by-item account of 2-AG accumulation, % of vehicle control at 1 µM
Target: MGL (Rattus norvegicus, UniProt Q8R431)
Construct: one g rat brain was homogenized using a Polytron homogenizer; from tissue; host or cells: rat brain homogenate
Sequence (Q8R431 whole entry): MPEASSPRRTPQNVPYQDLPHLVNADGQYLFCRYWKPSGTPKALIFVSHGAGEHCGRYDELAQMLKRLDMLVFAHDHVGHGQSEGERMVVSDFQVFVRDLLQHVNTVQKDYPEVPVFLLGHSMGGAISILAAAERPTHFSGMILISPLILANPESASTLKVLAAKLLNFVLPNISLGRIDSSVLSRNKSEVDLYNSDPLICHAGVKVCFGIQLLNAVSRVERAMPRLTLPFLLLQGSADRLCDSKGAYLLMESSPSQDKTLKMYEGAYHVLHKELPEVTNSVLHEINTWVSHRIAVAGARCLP
Assay: 2-AG accumulation assay in rat brain homogenate
Assay type: biochemical
Conditions: rat brain homogenate; compound 1 μM; 2-AG accumulation as percent of vehicle; read-out: Rat Brain 2AG % VehCntrl (%) @ 1 μM
OBSERVATION TYPE: 2-AG accumulation, % of vehicle control at 1 µM (%)

[[record]]
sample_smiles = "COc1cc(C(=O)N2CC(N3CCN(C(=O)c4ccccc4)CC3)C2)ccc1-c1ccc(F)c(Cl)c1"
result_number = 199

[[record]]
sample_smiles = "O=C(c1cscn1)N1CCN(C2CN(C(=O)c3sc4cc(F)c(C(F)(F)F)cc4c3Cl)C2)CC1"
result_number = 576

[[record]]
sample_smiles = "O=C(c1ccccc1)N1CCN(C2CN(C(=O)c3cc4c(C(F)(F)F)cccc4s3)C2)CC1"
result_number = 197

[[record]]
sample_smiles = "O=C(c1cscn1)N1CCN(C2CN(C(=O)c3cc4ccn(-c5ccc(F)cc5)c4cc3F)C2)CC1"
result_number = 696


----------
Biological target: MGL (Rattus norvegicus, UniProt Q8R431)
Construct: one g rat brain was homogenized using a Polytron homogenizer; from tissue; host or cells: rat brain homogenate
Assay: 2-AG accumulation assay in rat brain homogenate
Assay type: biochemical
Details: rat brain homogenate; compound 1 μM; 2-AG accumulation as percent of vehicle; read-out: Rat Brain 2AG % VehCntrl (%) @ 1 μM
Assign Satisfied to entries whose 2-AG accumulation, % of vehicle control at 1 µM meets or exceeds 200%; assign Not satisfied to the rest.

[[record]]
sample_smiles = "O=C(c1nccs1)N1CCN(C2CN(C(=O)c3cccc4oc(-c5ccccc5Cl)nc34)C2)CC1"
assigned_class = "Not satisfied"

[[record]]
sample_smiles = "[2H]c1c([2H])c([2H])c(C(=O)N2CCN(C3CN(C(=O)c4ccc(-c5cccc(C(F)(F)F)c5)cc4)C3)CC2)c([2H])c1[2H]"
assigned_class = "Not satisfied"

[[record]]
sample_smiles = "N#Cc1cccc(-c2ccc(C(=O)N3CC(N4CCN(C(=O)c5nccs5)CC4)C3)cc2)c1"
assigned_class = "Satisfied"

[[record]]
sample_smiles = "Cc1cn(-c2ccccc2)c2ccc(C(=O)N3CC(N4CCN(C(=O)c5ccccc5)CC4)C3)cc12"
assigned_class = "Satisfied"

[[record]]
sample_smiles = "CCCN(CCC)S(=O)(=O)c1ccc(C(=O)N2CC(N3CCN(C(=O)c4nccs4)CC3)C2)cc1"
assigned_class = "Satisfied"

[[record]]
sample_smiles = "O=C(c1cscn1)N1CCN(C2CN(C(=O)c3cc4ccc(C(F)(F)F)cc4s3)C2)CC1"
assigned_class = "Satisfied"

[[record]]
sample_smiles = "O=C(c1ccccc1)N1CCN(C2CN(C(=O)c3ccc(-c4ccc(Cl)c(Cl)c4)cc3)C2)CC1"
assigned_class = "Not satisfied"

[[record]]
sample_smiles = "O=C(c1ccc(F)c(Cc2ccc(C(F)(F)F)cc2)c1)N1CC(N2CCN(C(=O)c3nccs3)CC2)C1"
assigned_class = "Not satisfied"


----------
Target: purified wild type MGL (wt-MGLL 6H-11-313) (Homo sapiens, UniProt Q99685)
Sequence (Q99685 1-303): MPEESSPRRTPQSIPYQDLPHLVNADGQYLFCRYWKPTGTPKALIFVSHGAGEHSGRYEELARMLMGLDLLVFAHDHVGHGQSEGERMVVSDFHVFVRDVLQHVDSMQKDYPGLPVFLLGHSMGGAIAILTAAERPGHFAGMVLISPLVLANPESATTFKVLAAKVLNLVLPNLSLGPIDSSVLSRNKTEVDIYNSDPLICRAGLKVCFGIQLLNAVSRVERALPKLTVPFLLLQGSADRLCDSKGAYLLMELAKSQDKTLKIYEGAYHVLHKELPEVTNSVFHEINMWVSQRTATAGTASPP
OBSERVATION TYPE: IC50 (µM)

[[record]]
sample_smiles = "O=C(c1ccccc1)c1c[nH]c(C(=O)N2CC(N3CCN(C(=O)c4nccs4)CC3)C2)c1"
test_system = "purified wild type MGL (wt-MGLL 6H-11-313) (Homo sapiens, UniProt Q99685)"
observation_type = "IC50"
result_number = 15.2

[[record]]
sample_smiles = "Cn1c2ccccc2c2cc(C(=O)N3CC(N4CCN(C(=O)c5cscn5)CC4)C3)ccc21"
test_system = "purified wild type MGL (wt-MGLL 6H-11-313) (Homo sapiens, UniProt Q99685)"
observation_type = "IC50"
result_number = 0.691

[[record]]
sample_smiles = "O=C(c1cc2ccc(C(F)(F)F)nc2o1)N1CC(N2CCN(C(=O)c3nccs3)CC2)C1"
test_system = "purified wild type MGL (wt-MGLL 6H-11-313) (Homo sapiens, UniProt Q99685)"
observation_type = "IC50"
result_number = 6.1

[[record]]
sample_smiles = "Cc1nc2cc(C(=O)N3CCN(C4CN(C(=O)c5ccccc5)C4)CC3)ccc2n1C1CCCCC1"
test_system = "purified wild type MGL (wt-MGLL 6H-11-313) (Homo sapiens, UniProt Q99685)"
observation_type = "IC50"
result_number = 3.13

